- measured.on: T1, GFP-9S library array, motif 4 ND N98T;D124L (synthetic construct, N98T;D124L)
- T1 chain: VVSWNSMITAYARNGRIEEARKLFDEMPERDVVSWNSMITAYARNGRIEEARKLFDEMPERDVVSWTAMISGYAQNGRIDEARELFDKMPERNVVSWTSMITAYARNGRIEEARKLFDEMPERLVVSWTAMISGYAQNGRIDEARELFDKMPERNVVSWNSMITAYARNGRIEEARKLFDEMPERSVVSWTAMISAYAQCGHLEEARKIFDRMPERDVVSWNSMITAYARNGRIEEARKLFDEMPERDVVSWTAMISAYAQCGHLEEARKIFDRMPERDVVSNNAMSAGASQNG
- run.description: high-throughput RNA pulldown from lysate on Ni-NTA beads; HRP: 50 mM Tris pH 8, 150 mM NaCl, 1 mM beta-mercaptoethanol, 50 ug/ml BSA, 3 ug/ml yeast RNA, 0.5% heparin; ITC and FP: Tris pH 8, 200 mM KCl, 5% glycerol; MST: 50 mM Tris pH 8, 200 mM NaCl, 1 mM DTT, BSA, heparin, 0.05% Tween 20
- condition: tags: N-terminal His-eGFP; label: 5' Cy5
property.name: pKd
# pKd is unitless: minus log10 of the molar concentration; print number only

* AUUACACGUGA (ssRNA) [Cy5-rpoA] | 6.92

Input line: # lookup: pKd of AUUAGACGUGA (ssRNA) [Cy5-rpoA-G]
Output line: 6.92
